assay_name: Pharmacokinetics after intravenous injection
Assay type: in vivo
setup_conditions: male, Sprague Dawley, plasma, iv; rat; 10 mg/kg intravenously; one-compartment model

| entry_smiles | Vd (L/kg) |
| --- | --- |
| CCN(CC)S(=O)(=O)c1ccc(OC)c(N2CCN(C(=O)c3ccc(F)cc3C(F)(F)F)CC2)c1 | 23.6 |

---

measured_on: serotonin receptor 5-HT2C (Homo sapiens, UniProt P28335)
Construct: purchased CEREP (contract assay) 0137, 1003
Sequence (P28335 33-458): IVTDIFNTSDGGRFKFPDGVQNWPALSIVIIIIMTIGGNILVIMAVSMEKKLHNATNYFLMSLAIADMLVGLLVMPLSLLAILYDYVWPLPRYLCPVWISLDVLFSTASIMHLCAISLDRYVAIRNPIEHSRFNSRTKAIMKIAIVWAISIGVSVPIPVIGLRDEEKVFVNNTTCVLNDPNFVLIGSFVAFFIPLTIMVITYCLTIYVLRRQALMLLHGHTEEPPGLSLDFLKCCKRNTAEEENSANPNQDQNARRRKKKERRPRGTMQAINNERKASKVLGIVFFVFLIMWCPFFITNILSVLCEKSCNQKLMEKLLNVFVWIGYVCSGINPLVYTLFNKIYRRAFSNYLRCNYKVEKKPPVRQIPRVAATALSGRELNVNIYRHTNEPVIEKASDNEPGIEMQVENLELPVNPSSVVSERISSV
assay_name: CEREP 5-HT2C (h) (agonist radioligand)
Format: binding
setup_conditions: reference compound, Cat. No. 1003, read-out: Ki Ref
pKi: −log10 of the molar value.

| molecule | pKi |
| --- | --- |
| COc1cc(CC(C)N)c(OC)cc1I (racemic) [(±)DOI] | 9.38 |

---

measured_on: RET (Homo sapiens, UniProt P07949)
Construct: full-length human RET (long isoform) in pCR3.1
Sequence (P07949 29-1114): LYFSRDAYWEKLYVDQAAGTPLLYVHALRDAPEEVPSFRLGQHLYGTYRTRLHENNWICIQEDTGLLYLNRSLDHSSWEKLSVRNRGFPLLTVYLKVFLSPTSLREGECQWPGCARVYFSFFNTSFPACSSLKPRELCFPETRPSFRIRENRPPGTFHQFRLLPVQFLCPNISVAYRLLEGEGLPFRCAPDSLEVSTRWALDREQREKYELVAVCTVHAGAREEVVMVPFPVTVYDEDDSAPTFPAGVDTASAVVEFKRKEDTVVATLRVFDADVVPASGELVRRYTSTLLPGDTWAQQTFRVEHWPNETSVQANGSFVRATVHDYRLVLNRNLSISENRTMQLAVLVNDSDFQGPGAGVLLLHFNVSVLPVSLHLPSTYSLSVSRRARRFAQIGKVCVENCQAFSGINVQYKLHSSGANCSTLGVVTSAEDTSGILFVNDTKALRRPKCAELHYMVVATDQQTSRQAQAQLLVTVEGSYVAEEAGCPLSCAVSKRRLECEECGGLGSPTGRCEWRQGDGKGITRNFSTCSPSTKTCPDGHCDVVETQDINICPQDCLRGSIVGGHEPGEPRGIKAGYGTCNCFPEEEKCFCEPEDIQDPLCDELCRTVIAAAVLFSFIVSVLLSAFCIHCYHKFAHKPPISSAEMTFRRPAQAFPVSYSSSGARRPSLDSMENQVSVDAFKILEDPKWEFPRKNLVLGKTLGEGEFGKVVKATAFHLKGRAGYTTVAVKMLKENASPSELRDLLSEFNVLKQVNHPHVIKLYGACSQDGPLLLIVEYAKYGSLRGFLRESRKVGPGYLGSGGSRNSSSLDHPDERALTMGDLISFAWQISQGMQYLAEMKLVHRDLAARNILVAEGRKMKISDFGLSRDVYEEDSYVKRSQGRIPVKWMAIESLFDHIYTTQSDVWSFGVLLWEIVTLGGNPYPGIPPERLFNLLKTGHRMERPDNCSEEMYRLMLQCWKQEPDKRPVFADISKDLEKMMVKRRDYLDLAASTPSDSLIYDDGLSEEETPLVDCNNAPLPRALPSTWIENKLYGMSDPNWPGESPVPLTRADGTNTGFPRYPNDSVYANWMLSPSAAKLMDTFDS
assay_name: Luciferase reporter-gene assay (PathDetect Elk-1), RET reporter cells
setup_conditions: RET reporter cell line; 0.1–50 μM; read-out: EC50, luciferase activation
measure: EC50 (µM)

| entry_smiles | measure | units_label | result_number |
| --- | --- | --- | --- |
| CCN(CC)S(=O)(=O)c1ccc(OC)c(N2CCN(C(=O)c3ccc(F)cc3C(F)(F)F)CC2)c1 | EC50 | µM | 20.7 |

---

assay_name: Metabolic stability in liver microsomes
Format: in vitro ADME
setup_conditions: 0.5 mg/ml rat liver microsomes; read-out: Microsomal stability (% remaining in 30 min)

| entry_smiles | remaining at 0.5 h (%) |
| --- | --- |
| CCN(CC)S(=O)(=O)c1ccc(OC)c(N2CCN(C(=O)c3ccc(F)cc3C(F)(F)F)CC2)c1 | 2.8 |

---

measured_on: hERG (human Ether-à-go-go-related gene) (Homo sapiens)
Sequence (Q12809 whole entry): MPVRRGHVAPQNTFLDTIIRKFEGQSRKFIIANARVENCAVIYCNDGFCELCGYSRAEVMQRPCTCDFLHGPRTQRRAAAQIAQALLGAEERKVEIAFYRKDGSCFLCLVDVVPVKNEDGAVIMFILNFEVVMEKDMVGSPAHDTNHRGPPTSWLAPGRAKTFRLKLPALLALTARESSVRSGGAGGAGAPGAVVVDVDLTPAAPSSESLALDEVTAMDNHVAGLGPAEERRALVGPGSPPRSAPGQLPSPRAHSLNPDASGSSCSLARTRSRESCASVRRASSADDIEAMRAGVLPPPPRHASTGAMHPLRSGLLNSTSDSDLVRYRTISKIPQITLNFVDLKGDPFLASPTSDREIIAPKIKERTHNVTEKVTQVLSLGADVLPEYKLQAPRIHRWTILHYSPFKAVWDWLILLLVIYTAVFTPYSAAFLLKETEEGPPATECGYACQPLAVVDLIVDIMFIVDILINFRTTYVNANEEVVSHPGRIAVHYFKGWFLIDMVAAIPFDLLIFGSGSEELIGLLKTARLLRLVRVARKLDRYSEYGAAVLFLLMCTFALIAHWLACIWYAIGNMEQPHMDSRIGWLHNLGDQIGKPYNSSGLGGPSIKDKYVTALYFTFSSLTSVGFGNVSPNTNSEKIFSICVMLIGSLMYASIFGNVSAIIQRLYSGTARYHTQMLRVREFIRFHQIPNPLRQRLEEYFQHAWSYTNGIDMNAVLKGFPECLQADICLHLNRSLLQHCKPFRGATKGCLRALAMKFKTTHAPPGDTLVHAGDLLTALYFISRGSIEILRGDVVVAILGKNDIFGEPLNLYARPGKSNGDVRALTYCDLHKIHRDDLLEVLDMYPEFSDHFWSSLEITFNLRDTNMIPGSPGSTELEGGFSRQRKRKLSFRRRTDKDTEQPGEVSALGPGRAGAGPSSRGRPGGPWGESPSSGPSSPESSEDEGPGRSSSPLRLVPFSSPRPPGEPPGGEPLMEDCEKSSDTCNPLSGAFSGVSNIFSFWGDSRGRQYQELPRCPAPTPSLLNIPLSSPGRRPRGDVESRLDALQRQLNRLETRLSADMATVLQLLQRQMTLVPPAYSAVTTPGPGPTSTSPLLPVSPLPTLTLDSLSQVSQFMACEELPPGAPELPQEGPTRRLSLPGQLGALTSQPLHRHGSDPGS
pKi: −log10 of the molar value.

| entry_smiles | measured_on | pKi |
| --- | --- | --- |
| CCN(CC)S(=O)(=O)c1ccc(OC)c(N2CCN(C(=O)c3ccc(F)cc3C(F)(F)F)CC2)c1 | hERG (human Ether-à-go-go-related gene) (Homo sapiens) | < 4.52 |

---

assay_name: Plasma stability, mouse plasma
Type: in vitro ADME
setup_conditions: read-out: Plasma stability (% remaining after 1 h)
measure: remaining at 1 h (%)

| entry_smiles | measure | units_label | result_number |
| --- | --- | --- | --- |
| CCN(CC)S(=O)(=O)c1ccc(OC)c(N2CCN(C(=O)c3ccc(F)cc3C(F)(F)F)CC2)c1 | remaining at 1 h | % | 110 |

---

measured_on: serotonin receptor 5-HT2C (Homo sapiens)
Construct: purchased CEREP (contract assay) 0137, 1003
assay_name: CEREP 5-HT2C (h) (antagonist radioligand)
Format: binding
setup_conditions: reference compound, Cat. No. 0137
pIC50: −log10 of the molar value.

| entry_smiles | pIC50 |
| --- | --- |
| COc1cc(OC)c(C(=O)CCCCN2CCC3(CC2)NC(=O)NC3=O)cc1NS(=O)(=O)c1ccc(C(F)(F)F)cc1 | 8.52 |

---

measured_on: CYP3A4 (Homo sapiens)
Construct: Cyathus Exquirere (contract laboratory)
Sequence (P08684 whole entry): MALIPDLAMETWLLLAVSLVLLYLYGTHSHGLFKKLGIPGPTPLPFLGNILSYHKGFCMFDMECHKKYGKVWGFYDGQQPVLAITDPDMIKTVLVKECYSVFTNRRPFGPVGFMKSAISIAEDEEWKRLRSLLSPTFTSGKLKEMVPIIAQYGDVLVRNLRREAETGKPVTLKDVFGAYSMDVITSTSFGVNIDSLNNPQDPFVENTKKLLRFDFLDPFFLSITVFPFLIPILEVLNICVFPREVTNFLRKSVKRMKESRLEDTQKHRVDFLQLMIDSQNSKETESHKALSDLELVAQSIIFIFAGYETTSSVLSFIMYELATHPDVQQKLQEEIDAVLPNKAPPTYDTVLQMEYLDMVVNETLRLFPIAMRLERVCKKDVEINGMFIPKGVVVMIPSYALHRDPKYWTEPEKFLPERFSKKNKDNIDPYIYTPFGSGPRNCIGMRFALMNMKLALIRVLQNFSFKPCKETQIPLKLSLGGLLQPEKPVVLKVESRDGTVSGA
assay_name: CYP inhibition, fluorescent assay
Type: biochemical
setup_conditions: read-out: Inhibition of CYP isoforms (IC50), CYP3A4
pIC50: −log10 of the molar value.

| entry_smiles | pIC50 |
| --- | --- |
| CCN(CC)S(=O)(=O)c1ccc(OC)c(N2CCN(C(=O)c3ccc(F)cc3C(F)(F)F)CC2)c1 | 5.49 |

---

assay_name: Pharmacokinetics after intravenous injection
Assay type: in vivo
setup_conditions: male, Sprague Dawley, plasma, iv; rat; 10 mg/kg intravenously

| entry_smiles | clearance / mL/min |
| --- | --- |
| CCN(CC)S(=O)(=O)c1ccc(OC)c(N2CCN(C(=O)c3ccc(F)cc3C(F)(F)F)CC2)c1 | 78.3 |

---

measured_on: CYP2C19 (Homo sapiens, UniProt P33261)
Construct: Cyathus Exquirere (contract laboratory)
Sequence (P33261 whole entry): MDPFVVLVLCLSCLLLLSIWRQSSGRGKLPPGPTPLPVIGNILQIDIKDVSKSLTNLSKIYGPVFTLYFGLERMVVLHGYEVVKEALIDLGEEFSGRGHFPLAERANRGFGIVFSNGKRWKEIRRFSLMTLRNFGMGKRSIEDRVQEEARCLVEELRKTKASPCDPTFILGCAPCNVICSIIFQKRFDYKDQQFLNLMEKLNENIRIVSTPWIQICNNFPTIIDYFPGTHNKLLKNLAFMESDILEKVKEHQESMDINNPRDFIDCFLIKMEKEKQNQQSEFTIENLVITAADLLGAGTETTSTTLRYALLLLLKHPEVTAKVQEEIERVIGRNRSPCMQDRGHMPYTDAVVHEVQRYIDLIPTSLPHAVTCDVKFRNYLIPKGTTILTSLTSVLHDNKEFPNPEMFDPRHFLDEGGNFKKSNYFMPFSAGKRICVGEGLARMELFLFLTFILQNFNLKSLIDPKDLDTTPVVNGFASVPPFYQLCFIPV
assay_name: CYP inhibition, fluorescent assay
setup_conditions: read-out: Inhibition of CYP isoforms (IC50), CYP2C19
pIC50: −log10 of the molar value.
measure: pIC50

| entry_smiles | result |
| --- | --- |
| CCN(CC)S(=O)(=O)c1ccc(OC)c(N2CCN(C(=O)c3ccc(F)cc3C(F)(F)F)CC2)c1 | < 4.00 |

---

assay_name: Pharmacokinetics after intravenous injection
Type: in vivo
setup_conditions: male, Sprague Dawley, plasma, iv; rat; 10 mg/kg intravenously; one-compartment model; read-out: t1/2 (half-life in the blood) (converted)
measure: half-life (h)

| entry_smiles | result_number |
| --- | --- |
| CCN(CC)S(=O)(=O)c1ccc(OC)c(N2CCN(C(=O)c3ccc(F)cc3C(F)(F)F)CC2)c1 | 3.47 |

The values you see were collected from paper PMC5478727.
